Entry source: paper PMC7031696

As shown below, each of these compounds has a reported Log2(fold changes) UMP value.
- System: 3D7-MR4 trophozoite parasite-infected RBCs
- Method: Metabolomic profiling (hydrophilic metabolite changes, UHPLC-MS)
- Assay type: cell-based, Plasmodium falciparum
- Assay Conditions: metabolite UMP; log2 fold change

Compound	Assayed Target	Log2(fold changes) UMP
CN(C(=O)c1cn2c(-c3ccc(C(F)(F)F)cc3)cnc2cn1)c1ccc(C#N)cc1 [KAI407, reference compound]	3D7-MR4 trophozoite parasite-infected RBCs	0.2317
Cc1ccc(Oc2ncccc2C(=O)Nc2cccc3cccnc23)c(C)c1	3D7-MR4 trophozoite parasite-infected RBCs	0.1786
COc1cncc(-c2cncc(N3CCN(c4ccncc4)CC3)n2)c1	3D7-MR4 trophozoite parasite-infected RBCs	-0.2015
CC(C)C[C@@H](/C=C/S(C)(=O)=O)NC(=O)[C@H](CC(C)C)NC(=O)[C@H](Cc1c[nH]c2ccccc12)NC(=O)CN1CCOCC1 [WLL-vs, reference compound]	3D7-MR4 trophozoite parasite-infected RBCs	0.1341

###

- System: 3D7-MR4 trophozoite parasite-infected RBCs
- Method: Metabolomic profiling (hydrophilic metabolite changes, UHPLC-MS)
- Type: cell-based, Plasmodium falciparum
- Assay Conditions: metabolite proline
As shown below, each of these compounds has a reported Log2(fold change) proline value.
Assay Metric: Log2(fold change) proline

Compound	Assay Metric	Measured
CN(C)c1ccc2nc3ccc(=[N+](C)C)cc-3sc2c1 [Methylene blue, reference compound]	Log2(fold change) proline	0.1190
Cc1cc(Nc2ccc(S(F)(F)(F)(F)F)cc2)n2nc(C(C)(F)F)nc2n1 [DSM265, reference compound]	Log2(fold change) proline	0.0000
CNc1nc(NCCCN(C)C)c2sc(-c3cccc(C(F)(F)F)c3)cc2n1	Log2(fold change) proline	0.1500
CCCOCc1cc(CN2CCN(c3cccc(Cl)c3)CC2)c(O)c2ncccc12	Log2(fold change) proline	-0.4229
CC(C)(C)NCc1cc(Nc2ccnc3cc(Cl)ccc23)c2c(c1O)CCCC2 [Naphtoquine, Naphthoquine, reference compound]	Log2(fold change) proline	-0.0640
CN(C)Cc1ccc(-c2cc3c(-c4ccc(CN(C)C)cc4)ccnc3[nH]2)cc1.O=C(O)C(F)(F)F	Log2(fold change) proline	-0.1446
Clc1ccc2c(N3CCN(CCCN4CCN(c5ccnc6cc(Cl)ccc56)CC4)CC3)ccnc2c1 [Piperaquine, reference compound]	Log2(fold change) proline	-0.1490

###

- Tested on: Plasmodium falciparum 3D7-A10 parasites
- Method: Stage specificity assay (8-h exposure of synchronized stages, IC50^8h)
- Format: cell-based
- Assay Conditions: Plasmodium falciparum, 3D7, read-out: Late rings Mean IC50, shift 2, 8-h exposure 8–16 hr; line 'shift 2'
pIC50: −log10 of the molar value.
Assay Metric: pIC50

Molecule	Assay Metric	Measured
CN(C(=O)c1cn2c(-c3ccc(C(F)(F)F)cc3)cnc2cn1)c1ccc(C#N)cc1 [KAI407, reference compound]	pIC50	4.85

###

- Test system: 3D7-MR4 trophozoite parasite-infected RBCs
- Method: Metabolomic profiling (hydrophilic metabolite changes, UHPLC-MS)
- Type: cell-based, Plasmodium falciparum
- Assay Conditions: metabolite 6-phospho-D-gluconate, log2 fold change
Assign labels as follows, please: satisfied for Log2(fold changes) 6-phospho-D-gluconate below -0.4; not satisfied for Log2(fold changes) 6-phospho-D-gluconate equal to or exceeding -0.4.

Compound	Assayed Target	Class Label
CC(C)(C)OC(=O)N1CCN(c2ccccc2NC(=O)c2cccc(C(F)(F)F)c2Oc2ccc(F)cc2)CC1 [MMV030666]	3D7-MR4 trophozoite parasite-infected RBCs	not satisfied
O=C(Nc1ccc(N2CCNCC2)cc1)c1ccn2ncc(-c3cccc(Cl)c3)c2n1.O=C(O)C(F)(F)F [MMV022478]	3D7-MR4 trophozoite parasite-infected RBCs	satisfied
CCCOCc1cc(CN2CCN(c3cccc(Cl)c3)CC2)c(O)c2ncccc12 [MMV000787]	3D7-MR4 trophozoite parasite-infected RBCs	not satisfied
Cl.c1ccc2c(NCCCCCCNc3c4c(nc5ccccc35)CCCC4)c3c(nc2c1)CCCC3 [MMV019555]	3D7-MR4 trophozoite parasite-infected RBCs	not satisfied
Cc1cc(Nc2ccc(OCc3ccccc3)cc2)nc2cc(O)ccc12 [MMV007181]	3D7-MR4 trophozoite parasite-infected RBCs	not satisfied
FC(F)(F)c1cccc(Nc2nc3ccccc3nc2Nc2cccc(C(F)(F)F)c2)c1 [MMV665794]	3D7-MR4 trophozoite parasite-infected RBCs	not satisfied
